- System: SW-620
- assay_name: NCI 60 cell line panel (SRB), SW-620
- Assay type: cell-based
- assay_context: Homo sapiens; SW-620, Colon Cancer; single dose of 10 μM; read-out: Cell Growth Percent
Assignment: determine reported activity at 10 µM for the given molecules.
Numbers only, in %.

{"molecule": "O=C(Nc1ccccc1)Nc1ccc(Oc2ncnc3sc4c(c23)CCCC4)cc1 [Compound 21a]", "activity at 10 µM [%]": 92}
{"molecule": "CCOC(=O)c1c(C)oc2ncnc(Nc3ccc(C(=O)Nc4ccc(OC)cc4)cc3)c12 [Compound 14b]", "activity at 10 µM [%]": 112}

Each of the following entries comes with a recorded value; kindly state activity at 10 µM for each.
1. CCOC(=O)c1c(C)oc2ncnc(Nc3ccc(C(=O)NCCc4ccccc4)cc3)c12 [Compound 14e]
2. COc1cccc(NC(=O)Nc2ccc(Nc3ncnc4sc5c(c34)CCCC5)cc2)c1 [Compound 20c]

Marked response:
105
112

---

Assignment: determine reported activity at 10 µM for the given molecules.
- System: UACC-62
- assay_name: NCI 60 cell line panel (SRB), UACC-62
- Type: cell-based
- assay_context: Homo sapiens; UACC-62, Melanoma; single dose of 10 μM; read-out: Cell Growth Percent
One number for each entry, in %.

Sample records with activity at 10 µM:
{"molecule": "O=C(Nc1ccccc1)Nc1ccc(Nc2ncnc3sc4c(c23)CCCC4)cc1 [Compound 20a]", "endpoint_unit": "%", "activity at 10 µM": 97.8}
{"molecule": "O=C(Nc1ccc(Nc2ncnc3sc4c(c23)CCCC4)cc1)Nc1cccc(Cl)c1 [Compound 20d]", "endpoint_unit": "%", "activity at 10 µM": 106}
{"molecule": "CCOC(=O)c1c(C)oc2ncnc(Nc3ccc(NC(=O)Nc4cccc(Cl)c4)cc3)c12 [Compound 15d]", "endpoint_unit": "%", "activity at 10 µM": 69.1}

// next item, activity at 10 µM requested
Reported UACC-62 activity at 10 µM for item CCOC(=O)c1c(C)oc2ncnc(Nc3ccc(C(=O)NCCc4ccccc4)cc3)c12 [Compound 14e] was 94.9

---

- Tested on: HCC-2998
- assay_name: NCI 60 cell line panel (SRB), HCC-2998
- Type: cell-based
- assay_context: Homo sapiens; HCC-2998, Colon Cancer; single dose of 10 μM; read-out: Cell Growth Percent
measured_quantity: activity at 10 µM (%)
Numbers only, in %.

Sample records with activity at 10 µM:
{"compound": "O=C(Nc1ccccc1)Nc1ccc(Oc2ncnc3sc4c(c23)CCCC4)cc1 [Compound 21a]", "endpoint_unit": "%", "recorded_measurement": 89.6}
{"compound": "COc1cccc(NC(=O)Nc2ccc(Nc3ncnc4sc5c(c34)CCCC5)cc2)c1 [Compound 20c]", "endpoint_unit": "%", "recorded_measurement": 118}
{"compound": "O=C(Nc1ccccc1)Nc1ccc(Nc2ncnc3sc4c(c23)CCCC4)cc1 [Compound 20a]", "endpoint_unit": "%", "recorded_measurement": 95.3}

// next item, activity at 10 µM requested
What the record says about COc1cccc(NC(=O)Nc2ccc(Oc3ncnc4sc5c(c34)CCCC5)cc2)c1 [Compound 21c] : activity at 10 µM is 102

---

- Test system: SK-MEL-5
- assay_name: NCI 60 cell line panel (SRB), SK-MEL-5
- Format: cell-based
- assay_context: Homo sapiens; SK-MEL-5, Melanoma; single dose of 10 μM; read-out: Cell Growth Percent
Assignment: determine reported activity at 10 µM for the given compounds.
One number for each entry, in %.

Sample records with activity at 10 µM:
{"compound": "O=C(Nc1ccc(Cl)cc1)Nc1ccc(Oc2ncnc3sc4c(c23)CCCC4)cc1 [Compound 21d]", "endpoint_unit": "%", "activity at 10 µM": 78.4}
{"compound": "CCOC(=O)c1c(C)oc2ncnc(Nc3ccc(C(=O)Nc4cccc(Cl)c4)cc3)c12 [Compound 14a]", "endpoint_unit": "%", "activity at 10 µM": 92.2}

Each of the following entries comes with a recorded value; kindly state activity at 10 µM for each.
1. CCOC(=O)c1c(C)oc2ncnc(Nc3ccc(C(=O)NCCc4ccccc4)cc3)c12 [Compound 14e]
2. O=C(Nc1ccccc1)Nc1ccc(Oc2ncnc3sc4c(c23)CCCC4)cc1 [Compound 21a]
3. O=C(Nc1ccc(Nc2ncnc3sc4c(c23)CCCC4)cc1)Nc1cccc(Cl)c1 [Compound 20d]
4. COc1cccc(NC(=O)Nc2ccc(Nc3ncnc4sc5c(c34)CCCC5)cc2)c1 [Compound 20c]
5. CCOC(=O)c1c(C)oc2ncnc(Nc3ccc(C(=O)Nc4ccc(OC)cc4)cc3)c12 [Compound 14b]

Marked response:
85.6
67.9
98.1
92.3
87.9

Reported SK-MEL-5 activity at 10 µM for item CCOC(=O)c1c(C)oc2ncnc(Nc3ccc(NC(=O)Nc4cccc(Cl)c4)cc3)c12 [Compound 15d] was 52.9

Reference source for all entries: paper PMC4832243
